test system: SF-295; assay: NCI tumour cell line growth inhibition, 48 h
Calls of active or inactive are those of the source. No stated cut-off is given here; in the data, active = GI50 up to about 1.1 µM and inactive = higher.
Quick list: GI50 per entry.

A selection of reference data follows.
[
  {
    "Molecule": "O=C(c1ccccc1)c1ccc2[nH]c(-c3c(Cl)c(Cl)c(Cl)c(Cl)c3-c3nnc(-c4ccccc4)o3)nc2c1",
    "GI50": "14.1 µM (inactive)"
  },
  {
    "Molecule": "OCc1ccccc1C1CSCSC1",
    "GI50": "> 100 µM (inactive)"
  },
  {
    "Molecule": "C=CCN1C(=O)/C(=C/c2ccc(C)cc2)NC1=S",
    "GI50": "75 µM (inactive)"
  },
  {
    "Molecule": "CCOC(=O)c1cc(C2=C(S)N(CC(C)CC)CC2)c(C(=O)CC)[nH]1 (stereo unspecified)",
    "GI50": "18.2 µM (inactive)"
  },
  {
    "Molecule": "Cc1ccc([N+](=O)[O-])cc1S(=O)(=O)Nc1ccc(C2=NN(c3ccc([N+](=O)[O-])cc3[N+](=O)[O-])C(c3cccs3)C2)cc1 (stereo unspecified)",
    "GI50": "25.6 µM (inactive)"
  },
  {
    "Molecule": "COCCOc1nc(-c2ccccc2)nc2ccccc12",
    "GI50": "43.1 µM (inactive)"
  },
  {
    "Molecule": "CCCCCCCCCC/C=C/C=O",
    "GI50": "> 100 µM (inactive)"
  },
  {
    "Molecule": "Cc1cc(NS(=O)(=O)c2ccc(NC(=O)c3ccc(Cl)c4c(Nc5ccc(S(=O)(=O)Nc6cc(C)on6)cc5)c5ccccc5nc34)cc2)no1",
    "GI50": "23.8 µM (inactive)"
  },
  {
    "Molecule": "COC(=O)C1C=NNC1C(=O)OC (stereo unspecified)",
    "GI50": "> 100 µM (inactive)"
  },
  {
    "Molecule": "COc1cc(/C=N/c2nc3cc4sc(/N=C/c5cc(OC)c(OC)c(OC)c5)nc4cc3s2)cc(OC)c1OC",
    "GI50": "56.8 µM (inactive)"
  }
]

Lookup: GI50 / SF-295 / CN(C)c1c([O-])c(=[N+](C)C)c1=O
> 100 µM (inactive)

Lookup: GI50 / SF-295 / COP(=O)(OC)C(Nc1ccc(Cc2ccc(NC(c3ccco3)P(=O)(OC)OC)cc2)cc1)c1ccco1 (stereo unspecified)
11.5 µM (inactive)

Lookup: GI50 / SF-295 / CCN1C(c2ccccc2)=CC(c2ccccc2)(C(Cl)(Cl)Cl)C=C1c1ccccc1
32.5 µM (inactive)

Lookup: GI50 / SF-295 / O=C1CSCc2sccc21
> 100 µM (inactive)

Lookup: GI50 / SF-295 / O=C(O)CN1CCNCCN(CC(=O)O)CCNCC1
> 87.7 µM (inactive)

Lookup: GI50 / SF-295 / CC1=CC(=O)/C(=C/NC(=S)NCCc2ccccc2)C(=O)O1
> 100 µM (inactive)

Lookup: GI50 / SF-295 / CSc1nc(-c2ccccc2)nc(C(C#N)C#N)n1
> 100 µM (inactive)

Lookup: GI50 / SF-295 / COc1ccc(C2=C3c4cc(OC)c(OC)cc4CCN3C(=S)SS2)cc1OC
> 100 µM (inactive)

Lookup: GI50 / SF-295 / OC1CCN2Cc3ccccc3N=C12 (stereo unspecified)
> 100 µM (inactive)

Lookup: GI50 / SF-295 / Ic1cccc(/C=C/CN2CCN(CCOC(c3ccccc3)c3ccccc3)CC2)c1
17.5 µM (inactive)

Lookup: GI50 / SF-295 / CC1=C(C(=O)Nc2cccc(Cl)c2)C(c2ccc([N+](=O)[O-])cc2)C(C(=O)Nc2cccc(Cl)c2)=C(C)N1
23.6 µM (inactive)

Lookup: GI50 / SF-295 / COc1ccc(OCc2ccc3nc(-c4ccccc4)c(Cl)nc3c2)cc1
21.7 µM (inactive)
